B1: CPEB3 Ribozyme (parent)
chain: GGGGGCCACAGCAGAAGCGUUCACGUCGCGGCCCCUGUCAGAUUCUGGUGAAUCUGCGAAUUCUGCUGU

variants of: B1; assay: self-cleavage, relative activity (ratio to wild type); higher = more cleavage; co-transcriptional
Criterion: self-cleavage meeting or surpassing 0.3. Met: 1. Not met: 0.

>>> class_name("C22U G30A")
0
>>> class_name("G4C C27A")
0
>>> class_name("C24G C29G")
0
>>> class_name("G2A G68U")
1
>>> class_name("G50A C66A")
1
>>> class_name("C45A A60G")
1
>>> class_name("G30C G37C")
0
>>> class_name("U20G G50U")
0
>>> class_name("A42U C45G")
1
>>> class_name("G28U A40U")
0
>>> class_name("G41U U55C")
1
>>> class_name("C54U U61C")
1
>>> class_name("G17U G30A")
0
>>> class_name("C24U A60G")
1
>>> class_name("U20C U55G")
0
>>> class_name("G14A C57U")
0
>>> class_name("C7A G37C")
0
>>> class_name("A8C U61A")
1
>>> class_name("U36A G50U")
0
>>> class_name("C6U U26G")
1
>>> class_name("G14A A52G")
1
>>> class_name("G19C U43G")
0
>>> class_name("C7G G48C")
1
>>> class_name("C12A G14U")
0
>>> class_name("U55C G56C")
1
>>> class_name("U55C U67G")
1
>>> class_name("C39A G41C")
1
>>> class_name("G47U G50U")
1
>>> class_name("A15U G65U")
1
>>> class_name("A42G C57G")
0
>>> class_name("C24U U36C")
1
>>> class_name("G47U U64C")
1
>>> class_name("C27U C57U")
0
>>> class_name("G2U A23G")
0
>>> class_name("U20C G28U")
0
>>> class_name("C34A U36G")
1
>>> class_name("G31A U64A")
1
>>> class_name("A59C C66U")
1
>>> class_name("G30C U44A")
1
>>> class_name("G11U A60C")
0
>>> class_name("G11C A42C")
0
>>> class_name("C34A U61G")
1
>>> class_name("C32U U55C")
1
>>> class_name("U38G A40U")
0
>>> class_name("C7G C12A")
0
>>> class_name("C9A C22G")
0
>>> class_name("A40C A51C")
1
>>> class_name("G2C A8G")
0
>>> class_name("G25U U69A")
0
>>> class_name("C34U U43A")
1
>>> class_name("G2C A23U")
0
>>> class_name("C24G U69A")
1
>>> class_name("G56U U67G")
1
>>> class_name("C9U C57G")
1
>>> class_name("G3A G14A")
1
>>> class_name("C6G G11A")
0
>>> class_name("G31C A51G")
1
>>> class_name("C6U U38A")
1
>>> class_name("U53A A60G")
1
>>> class_name("G5C G11C")
0
>>> class_name("G25A C63A")
0
>>> class_name("C27A U67G")
1
>>> class_name("A16C C39U")
0
>>> class_name("G30A U69G")
1
>>> class_name("A13C U64C")
1
>>> class_name("C32U A60U")
1
>>> class_name("G4A C33U")
1
>>> class_name("C12U U20G")
0
>>> class_name("C45G G56C")
1
>>> class_name("A10U G50U")
1
>>> class_name("A13C G19A")
0
>>> class_name("C22G U49A")
0
>>> class_name("G1U A15U")
0
>>> class_name("G17A A60G")
0
>>> class_name("C33A A52G")
1
>>> class_name("C45A G50U")
1
>>> class_name("U20G U61A")
0
>>> class_name("G11C U53G")
1
>>> class_name("C7U U20G")
0
>>> class_name("U21C C33G")
0
>>> class_name("A42G G56U")
1
>>> class_name("G11U A15G")
1
>>> class_name("U43A A51C")
1
>>> class_name("U49A A51C")
1
>>> class_name("G4A U69C")
1
>>> class_name("C32G A52G")
1
>>> class_name("U43C U62G")
1
>>> class_name("U49A C66U")
1
>>> class_name("C9A C66U")
1
>>> class_name("C34A U67A")
1
